pKi overview
Target Or Test System: Amyloid-beta precursor protein (Homo sapiens, UniProt P05067)
Sequence (P05067 whole entry): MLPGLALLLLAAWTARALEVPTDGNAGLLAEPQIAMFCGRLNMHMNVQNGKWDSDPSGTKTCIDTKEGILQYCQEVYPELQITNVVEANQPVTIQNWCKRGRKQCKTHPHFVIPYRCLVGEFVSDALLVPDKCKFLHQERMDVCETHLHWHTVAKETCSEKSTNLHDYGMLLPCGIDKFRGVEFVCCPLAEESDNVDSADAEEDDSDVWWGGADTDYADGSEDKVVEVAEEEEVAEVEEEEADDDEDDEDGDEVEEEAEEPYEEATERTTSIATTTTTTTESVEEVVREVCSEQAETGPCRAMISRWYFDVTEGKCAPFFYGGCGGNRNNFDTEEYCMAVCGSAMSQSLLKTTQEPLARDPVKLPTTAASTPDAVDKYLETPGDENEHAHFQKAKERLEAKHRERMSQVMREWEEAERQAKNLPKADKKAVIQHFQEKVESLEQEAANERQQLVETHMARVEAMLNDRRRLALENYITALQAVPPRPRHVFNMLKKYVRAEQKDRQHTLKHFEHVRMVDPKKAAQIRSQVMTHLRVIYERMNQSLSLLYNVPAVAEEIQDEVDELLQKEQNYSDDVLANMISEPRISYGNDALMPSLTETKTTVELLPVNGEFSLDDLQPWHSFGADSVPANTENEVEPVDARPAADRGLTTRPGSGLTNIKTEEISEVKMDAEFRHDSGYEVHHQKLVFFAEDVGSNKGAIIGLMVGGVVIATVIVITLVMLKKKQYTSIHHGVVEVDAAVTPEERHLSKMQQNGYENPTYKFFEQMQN
Assay: Displacement of [125I]IMSB from beta amyloid protein 40
Formally, pKi is defined as -log10 of the concentration c, with c in mol/L.

| Chemical String | pKi |
| --- | --- |
| COc1cc(/C=C/C(O)=C/C(=O)/C=C/c2cc(I)c(O)c(OC)c2)ccc1O | 8.03 |
| O=C(O)c1cc(/N=N/c2ccc(-c3ccc(/N=N/c4ccc(O)c(C(=O)O)c4)cc3)cc2)ccc1O | 9.80 |
| COc1cc(/C=C/C(C)=O)cc(I)c1O | 7.70 |

Continue with the next molecule.
Query: Give pKi for the following molecule: COc1cc(/C=C/C(O)=C/C(=O)/C=C/c2ccc(OCCCF)c(OC)c2)ccc1O
Result: 10.15

----------
Assay: Partition coefficient, log P of the compound
Type: physicochemical
Assay Setup: octanol/water
The reader will find reported logP values listed item by item below.
The answer should be written as a number, with no unit following it.

Sample answers from the record:
| Chemical String | Reading |
| --- | --- |
| COc1cc(/C=C/C(O)=C/C(=O)/C=C/c2cc([125I])c(O)c(OC)c2)ccc1O | 0.94 |
| COc1cc(/C=C/C(O)=C/C(=O)/C=C/c2ccc(OCCC[18F])c(OC)c2)ccc1O | 1.84 |

Query: Identify the reported logP for the following entry. COc1cc(/C=C/C(O)=C/C(C)=O)cc([125I])c1O
Result: 1.35
